Cited source for all entries: patent US8841301B2

- targetOrSystem: hNR2B (Homo sapiens, UniProt Q05586+Q13224)
- Sequence (Q13224 27-1484, other chains not shown): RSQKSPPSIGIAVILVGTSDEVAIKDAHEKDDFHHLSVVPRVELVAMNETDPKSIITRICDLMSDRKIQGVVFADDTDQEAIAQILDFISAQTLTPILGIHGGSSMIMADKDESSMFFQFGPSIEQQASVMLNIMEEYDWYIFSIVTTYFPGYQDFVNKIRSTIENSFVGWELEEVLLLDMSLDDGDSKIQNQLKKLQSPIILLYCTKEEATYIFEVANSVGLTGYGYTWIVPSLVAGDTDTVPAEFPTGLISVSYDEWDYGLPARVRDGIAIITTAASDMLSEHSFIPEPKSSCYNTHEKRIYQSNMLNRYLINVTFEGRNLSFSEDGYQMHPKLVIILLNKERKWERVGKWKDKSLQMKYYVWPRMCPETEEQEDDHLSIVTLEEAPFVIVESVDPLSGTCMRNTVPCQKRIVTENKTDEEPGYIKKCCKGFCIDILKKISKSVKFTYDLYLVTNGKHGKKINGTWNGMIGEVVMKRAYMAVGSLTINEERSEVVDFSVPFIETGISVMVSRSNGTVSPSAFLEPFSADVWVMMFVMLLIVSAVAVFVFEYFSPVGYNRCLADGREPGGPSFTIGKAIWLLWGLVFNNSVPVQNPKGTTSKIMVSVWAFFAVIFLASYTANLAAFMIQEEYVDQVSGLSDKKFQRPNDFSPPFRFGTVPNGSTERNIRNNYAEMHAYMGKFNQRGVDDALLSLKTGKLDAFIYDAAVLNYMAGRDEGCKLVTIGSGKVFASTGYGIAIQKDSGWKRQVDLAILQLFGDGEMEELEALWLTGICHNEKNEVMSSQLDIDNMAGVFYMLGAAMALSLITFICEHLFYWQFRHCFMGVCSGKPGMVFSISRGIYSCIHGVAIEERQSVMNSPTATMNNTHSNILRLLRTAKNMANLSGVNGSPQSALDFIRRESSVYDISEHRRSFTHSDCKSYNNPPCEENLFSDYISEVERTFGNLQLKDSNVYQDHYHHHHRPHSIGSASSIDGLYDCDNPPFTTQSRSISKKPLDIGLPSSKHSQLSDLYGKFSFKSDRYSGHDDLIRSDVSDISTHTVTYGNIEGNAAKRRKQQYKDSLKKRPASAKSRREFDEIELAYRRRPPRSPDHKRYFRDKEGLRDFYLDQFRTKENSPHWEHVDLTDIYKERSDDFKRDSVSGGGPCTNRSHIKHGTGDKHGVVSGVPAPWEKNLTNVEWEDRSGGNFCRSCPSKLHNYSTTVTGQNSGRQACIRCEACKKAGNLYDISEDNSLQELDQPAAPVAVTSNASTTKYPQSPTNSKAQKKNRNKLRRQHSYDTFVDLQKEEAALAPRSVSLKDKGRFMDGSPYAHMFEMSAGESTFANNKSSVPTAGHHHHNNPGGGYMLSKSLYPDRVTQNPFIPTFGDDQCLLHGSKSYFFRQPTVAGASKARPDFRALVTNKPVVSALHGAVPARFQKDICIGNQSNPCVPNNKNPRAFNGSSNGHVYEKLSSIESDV
- measurementProtocol: Electrophysiology NMDA receptor experiments: two electrode voltage-clamp in Xenopus laevis oocytes expressing GluN1/GluN2 subunits
- Type: cell-based
- runConditions: oocytes voltage clamped at −40 mV; 50 μM glutamate, 30 μM glycine; read-out: Rating (hNR2B IC50)
pIC50: −log10 of the molar value.
quantityMeasured: pIC50

Examples from the recorded data:
compound: FC(F)Oc1ccc(Nc2ncc(COc3cnc4[nH]ccc4c3)cn2)cc1Cl [Example 90]
targetOrSystem: hNR2B (Homo sapiens, UniProt Q05586+Q13224)
quantityMeasured: pIC50
result: > 6.70
//
compound: O=C1Nc2ccc(OCc3cnc(Nc4ccc(OC(F)F)c(F)c4)nc3)cc2CO1 [Example 84]
targetOrSystem: hNR2B (Homo sapiens, UniProt Q05586+Q13224)
quantityMeasured: pIC50
result: > 6.70
//
compound: COc1ccc(Nc2ncc(COc3ccc4[nH]c(=O)ccc4c3)cn2)cc1 [Example 24]
targetOrSystem: hNR2B (Homo sapiens, UniProt Q05586+Q13224)
quantityMeasured: pIC50
result: > 6.70
//
compound: CCCc1ccc(Nc2ncc(COc3ccc4[nH]c(=O)ccc4c3)cn2)cc1 [Example 43]
targetOrSystem: hNR2B (Homo sapiens, UniProt Q05586+Q13224)
quantityMeasured: pIC50
result: > 6.70

Here's the next entry for you.
Data request: Could you tell me which pIC50 is on file for FC(F)(F)Oc1ccc(Nc2ncc(COc3ccc4[nH]ncc4c3)cn2)cc1 [Example 56] ?
Data returned: > 6.70

###

IC50 listing for selected compounds.
- targetOrSystem: hNR2B (Homo sapiens, UniProt Q05586+Q13224)
- measurementProtocol: Electrophysiology NMDA receptor experiments: two electrode voltage-clamp in Xenopus laevis oocytes expressing GluN1/GluN2 subunits
- Assay type: cell-based
- runConditions: oocytes voltage clamped at −40 mV; 50 μM glutamate, 30 μM glycine; read-out: Rating (hNR2B IC50)

compound: O=c1ccc2cc(OCc3cnc(NCc4ccc(F)cc4)nc3)ccc2[nH]1 [Example 27]
IC50: < 200 nM

Data request: Could you tell me which IC50 is on file for Cc1ccc(Nc2ncc(COc3ccc4[nH]c(=O)ccc4c3)cn2)cc1C [Example 41] ?
Data returned: < 200 nM

Data request: Could you tell me which IC50 is on file for O=c1ccc2cc(CCc3cnc(Nc4ccc(OC(F)F)cc4)nc3)ccc2[nH]1 [Example 109] ?
Data returned: < 200 nM

Data request: Could you tell me which IC50 is on file for O=c1ccc2cc(OCc3ccc(NCc4ccc(Cl)cc4)nc3)ccc2[nH]1 [Example 1] ?
Data returned: < 200 nM

###

IC50 listing for selected molecules.
- targetOrSystem: hNR2B (Homo sapiens, UniProt Q05586+Q13224)
- measurementProtocol: Electrophysiology NMDA receptor experiments: two electrode voltage-clamp in Xenopus laevis oocytes expressing GluN1/GluN2 subunits
- Type: cell-based
- runConditions: oocytes voltage clamped at −40 mV; 50 μM glutamate, 30 μM glycine; read-out: Rating (hNR2B IC50)

Examples from the recorded data:
querySmiles: CCc1ccc(Nc2ncc(CCc3ccc4[nH]ncc4c3)cn2)cc1F
IC50: 1000 to 10000 nM
//
querySmiles: FC(F)Oc1ccc(Nc2ncc(CCc3ccc4[nH]ncc4c3)cn2)cc1
IC50: 201 to 1000 nM
//
querySmiles: Oc1ncc(OCc2cnc(Nc3ccc(OC(F)F)cc3)nc2)cn1
IC50: < 200 nM
//
querySmiles: COc1ccc(Nc2ncc(COc3ccc4[nH]c(=O)ccc4c3)cn2)cc1Cl
IC50: < 200 nM
//
querySmiles: Cc1ccc(Nc2ncc(CCc3ccc4c(c3)C(C)(C)OC(=O)N4)cn2)cc1F
IC50: 1000 to 10000 nM
//
querySmiles: Oc1ccc(OCc2cnc(Nc3ccc(OC(F)F)cc3)nc2)nn1
IC50: < 200 nM

Here's the next entry for you.
Data request: Find IC50 (hNR2B (Homo sapiens, UniProt Q05586+Q13224)) for the entry `Cc1nc(Nc2ccc(Cl)cc2)ncc1COc1ccc2[nH]c(=O)ccc2c1`
Data returned: < 200 nM

###

- targetOrSystem: hNR2B (Homo sapiens, UniProt Q05586+Q13224)
- measurementProtocol: Electrophysiology NMDA receptor experiments: two electrode voltage-clamp in Xenopus laevis oocytes expressing GluN1/GluN2 subunits
- Format: cell-based
- runConditions: oocytes voltage clamped at −40 mV; 50 μM glutamate, 30 μM glycine; read-out: Rating (hNR2B IC50)
quantityMeasured: IC50

Examples from the recorded data:
querySmiles: O=c1ccc2cc(OCc3cncc(NCc4ccc(Cl)cc4)n3)ccc2[nH]1
targetOrSystem: hNR2B (Homo sapiens, UniProt Q05586+Q13224)
quantityMeasured: IC50
result: 201 to 1000 nM
//
querySmiles: COc1ncc(Nc2ncc(COc3ccc4[nH]c(=O)ccc4c3)cn2)cc1C
targetOrSystem: hNR2B (Homo sapiens, UniProt Q05586+Q13224)
quantityMeasured: IC50
result: < 200 nM
//
querySmiles: Cc1cc(Nc2ncc(COc3ccc(Nc4nccs4)cc3)cn2)ccc1OC(F)F
targetOrSystem: hNR2B (Homo sapiens, UniProt Q05586+Q13224)
quantityMeasured: IC50
result: < 200 nM

Data request: Could you tell me which IC50 is on file for `O=c1ccc2cc(OCc3cnc(Nc4ccc(F)c(F)c4)nc3)ccc2[nH]1` ?
Data returned: < 200 nM

Data request: Could you tell me which IC50 is on file for `O=c1ccc2cc(OCc3cnc(Nc4ccc(OC(F)F)cc4)nc3C(F)(F)F)ccc2[nH]1` ?
Data returned: < 200 nM

Data request: Could you tell me which IC50 is on file for `CCc1ccc(Nc2ncc(CCc3ccc4c(c3)C(C)(C)OC(=O)N4)cn2)cc1F` ?
Data returned: 1000 to 10000 nM

Data request: Could you tell me which IC50 is on file for `CCc1ccc(Nc2ncc(CCc3ccc4[nH]c(=O)ccc4c3)cn2)cc1Cl` ?
Data returned: 1000 to 10000 nM

Data request: Could you tell me which IC50 is on file for `O=c1ccc2cc(OCc3ccc(Nc4ccc(OC(F)F)cc4)nc3)ccc2[nH]1` ?
Data returned: < 200 nM

Data request: Could you tell me which IC50 is on file for `O=c1ccc2cc(OCc3cncc(Nc4ccc(Cl)cc4)n3)ccc2[nH]1` ?
Data returned: 1000 to 10000 nM

Data request: Could you tell me which IC50 is on file for `O=c1ccc2cc(OCc3cncc(NCc4ccc(Cl)c(Cl)c4)n3)ccc2[nH]1` ?
Data returned: 1000 to 10000 nM

Data request: Could you tell me which IC50 is on file for `O=C1Nc2ccc(CCc3cnc(Nc4ccc(OC(F)F)c(Cl)c4)nc3)cc2CO1` ?
Data returned: < 200 nM

Data request: Could you tell me which IC50 is on file for `O=c1ccc2cc(OCc3cnc(NCc4ccc(F)c(F)c4)nc3)ccc2[nH]1` ?
Data returned: < 200 nM

Data request: Could you tell me which IC50 is on file for `CCc1ccc(Nc2ncc(CCc3ccc4[nH]c(=O)ccc4c3)cn2)cc1` ?
Data returned: < 200 nM

###

- targetOrSystem: hNR2B (Homo sapiens, UniProt Q05586+Q13224)
- measurementProtocol: Electrophysiology NMDA receptor experiments: two electrode voltage-clamp in Xenopus laevis oocytes expressing GluN1/GluN2 subunits
- Type: cell-based
- runConditions: oocytes voltage clamped at −40 mV; 50 μM glutamate, 30 μM glycine; read-out: Rating (hNR2B IC50)
- Procedure: Electrophysiology NMDA Receptor Experiments. Stage V and VI oocytes were surgically removed from the ovaries of large, well-fed and healthy Xenopus laevis anesthetized with 3-amino-benzoic acid ethyl ester (3 gm/l). […] Two electrode voltage-clamp recordings were made 2-7 days post-injection. […] Oocytes were recorded under voltage clamp at −40 mV. […] The baseline leak current at −40 mV was measured before and after recording, and the full recording linearly corrected for any change in leak current. […]
pIC50: −log10 of the molar value.
pIC50 listing for selected compounds.

compound: CC(C)c1ccc(Nc2ncc(COc3ccc4[nH]c(=O)ccc4c3)cn2)cc1 [Example 44]
result: > 6.70
//
compound: CCc1ccc(Nc2ncc(CCc3ccc4[nH]ncc4c3)cn2)cc1 [Example 127]
result: 6.00 to 6.70
//
compound: O=c1ccc2cc(OCc3cnc(Nc4ccc(OC(F)F)cc4)nc3)ccc2[nH]1 [Example 22]
result: > 6.70

Data request: Find pIC50 (hNR2B (Homo sapiens, UniProt Q05586+Q13224)) for the entry Fc1cc(Nc2ncc(COc3ccc4[nH]ncc4c3Cl)cn2)ccc1OC(F)F [Example 72]
Data returned: > 6.70

Data request: Find pIC50 (hNR2B (Homo sapiens, UniProt Q05586+Q13224)) for the entry Cc1cc(Nc2ncc(COc3ccc4[nH]ncc4c3Cl)cn2)ccc1OC(F)F [Example 73]
Data returned: > 6.70

Data request: Find pIC50 (hNR2B (Homo sapiens, UniProt Q05586+Q13224)) for the entry O=c1ccc2cc(OCc3cnc(Nc4ccc(Cl)c(Cl)c4)nc3)ccc2[nH]1 [Example 20]
Data returned: > 6.70
